- Tested on: Hepatitis C virus
- protocol: Antiviral activity against HCV1b infected in clone A and ET-lunet cells assessed as inhibition of viral replication after 4 days by RT-PCR analysis
- Type: functional, organism-based, Hepacivirus hominis
- measurement setup: genotype 1b, 96 h
assay endpoint: EC90 (nM)

CC(C)C[C@H]1CN(C(=O)/C=C/c2ccc(F)cc2)[C@@H](CC(C)C)C(=O)N1; 1500

(A) CC(C)C[C@H]1C(=O)N[C@@H](C(C)C)CN1C(=O)c1cc(-c2ccc(F)cc2)on1
(B) CC(C)C[C@H]1CN(C(=O)c2cc(-c3ccc(Br)cc3)on2)[C@@H](CC(C)C)C(=O)N1
Inquiry: Of A and B , which shows the smaller EC90 value? Mark your selection by writing its label.
Reply text: A

(P) Cc1ccc([C@H]2CN(C(=O)c3cc(-c4ccc(F)cc4)on3)[C@@H](CC(C)C)C(=O)N2)s1
(Q) CC(C)C[C@H]1CN(C(=O)C#Cc2ccccc2)[C@@H](CC(C)C)C(=O)N1
Inquiry: Which entry shows the lesser value of EC90 here, P or Q ? Returns: label corresponding to the selected item.
Reply text: P
(P: 180 nM, Q: 3200 nM)
